experimental-system: Retinaldehyde dehydrogenase 3 (Homo sapiens) (UniProt P47895)
procedure-summary: qHTS for Inhibitors of the Aldehyde Dehydrogenase Family (ALDH1A3) Primary screen (AID 2061315);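 note: plate controls were DMSO vehicle for no effect and reference inhibitor for full effect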
measurement-conditions: ALDH inhibition qHTS; series mostly up to 56 µM
Results filed as inconclusive are left out. Activity calls are given as the source filed them. Calls come from the whole dose curve; as a rule, active = well fitted inhibition curve with a large enough effect; inconclusive = small, poorly fitted or top-dose-only effect; inactive = no such curve, though single readings can be large or run the other way.

compound	experimental-system	activity change, negative = inhibition
CC(=O)OC1C(OC(=O)c2ccccc2)C2C(C)(C)CCC(OC(C)=O)C2(C)C23CCC(C)(C2)C(=O)CC13 (centres undefined)	Retinaldehyde dehydrogenase 3 (Homo sapiens) (UniProt P47895)	inactive
CC(C)C(C#N)O[C@@H]1O[C@H](CO[C@@H]2O[C@@H](C)[C@H](O)[C@@H](O)[C@H]2O)[C@@H](O)[C@H](O)[C@H]1O (some centres undefined)	Retinaldehyde dehydrogenase 3 (Homo sapiens) (UniProt P47895)	inactive
C=CC(C)(O)CC/C=C(\C)C(=O)OC1C(O)C(CO)OC(OC(=O)C23CCC(C)(C)CC2C2=CCC4C5(C)CCC(OC6OC(COC7OCC(OC(C)=O)C(O)C7OC7OC(COC(C)=O)C(O)C(O)C7O)C(O)C(O)C6O)C(C)(C)C5CCC4(C)C2(C)C(O)C3O)C1OC1OCC(OC2OCC(O)C(OC3OCC(O)C(O)C3O)C2O)C(O)C1O (centres undefined)	Retinaldehyde dehydrogenase 3 (Homo sapiens) (UniProt P47895)	15% [at 11.2 µM] (inactive)
COc1ccccc1-c1ccc(-c2cn(C(=O)N3CCCCC3Cc3ccccc3)nn2)cc1 (centres undefined)	Retinaldehyde dehydrogenase 3 (Homo sapiens) (UniProt P47895)	inactive
